measured target: biotinylated HCV core peptide 141-161 (Peptide 2) (HCV-1)
procedure text: EIA, captured mAb
outcome measure: Reactivity (OD492) (OD)

1) HCV 208B-1024 (antibody, V domains shown) VH: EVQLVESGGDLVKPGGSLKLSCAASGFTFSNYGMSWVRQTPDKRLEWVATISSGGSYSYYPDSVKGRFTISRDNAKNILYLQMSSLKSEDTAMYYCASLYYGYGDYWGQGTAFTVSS VL: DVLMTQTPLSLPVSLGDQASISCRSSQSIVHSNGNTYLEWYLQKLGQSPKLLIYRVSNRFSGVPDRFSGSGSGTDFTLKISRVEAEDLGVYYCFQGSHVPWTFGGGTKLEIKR; 0.75
2) HCV 208B-178 (antibody, V domains shown) VH: DVKLVESGGGLVKLGGSLKLSCAASGFTFSSYYMSWVRQTPEKRLELVAAINSNGGSTYYPDTVKGRFTISRDNAKNTLYLQMSSLKSEDTALYYCARHGGLGRRDWYFDVWGAGTTVTVSS VL: DIVLTQSPASLAVSLGQRATISCRASESVDNYGISFMHWYQQKPGQPPKLLIYRASNLESGIPARFSGSGSRTDFTLTINPVETDDVATYYCQQSNKDPFTFGSGAKLEIKR; 0.07
3) HCV 208A-133 (antibody, V domains shown) VH: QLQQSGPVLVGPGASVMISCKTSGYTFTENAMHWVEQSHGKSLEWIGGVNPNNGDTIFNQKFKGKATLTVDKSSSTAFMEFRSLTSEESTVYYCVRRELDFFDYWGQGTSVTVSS VL: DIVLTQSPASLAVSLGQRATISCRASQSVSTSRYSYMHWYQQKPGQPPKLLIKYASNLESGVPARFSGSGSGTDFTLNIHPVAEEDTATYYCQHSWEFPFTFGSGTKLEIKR; 3.68
4) HCV 208A-605 (antibody, V domains shown) VH: EVQLQQSGPELEKPGASVKISCKTSGYTFTEYAIHWVKQSHGMSLEWIGGINPSNGNAIYNQIFKDKATLTVDRSSSTAYMGLRSLTFGDSGVYFCVRRQLDFFDYWGQGASLTVSS VL: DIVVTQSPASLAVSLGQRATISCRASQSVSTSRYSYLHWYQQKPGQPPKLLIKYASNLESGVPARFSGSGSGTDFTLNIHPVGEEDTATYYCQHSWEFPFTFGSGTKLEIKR; 3.71
5) HCV 208B-672 (antibody, V domains shown) VH: EVKLVESGGSLVQPGGSLKLSCAASGFNFNTYAMSWVRQTPEKRLEWVAYISNGGGNTYYVDTVKGRFTISRDNAKNTLYLRMSSLKSEDTAMYYCARHGLYWGYSMDYWGQGTSVTVSS VL: DIQMTQSPSSLSASLGERVSLTCRASQDIGGSINWLQQEPDGTIKRLIYATSSLDSGVPKRFSGSRSGSDYSLTISSLESEDFVDYYCLQYASSPPTFGGGTKLEIKR; 2.79
6) HCV 208A-442 (antibody, V domains shown) VH: DVQLQESGPGLVNPSQSLSLTCSVTGYSITSGYYWIWIRQFPGNKLEWMGYIKYDGGNNYSPSLKNRISIARDTSKNQFFLKLNSVTIEDTATYYCTRGSDSFDYWGQGTTLTVSS VL: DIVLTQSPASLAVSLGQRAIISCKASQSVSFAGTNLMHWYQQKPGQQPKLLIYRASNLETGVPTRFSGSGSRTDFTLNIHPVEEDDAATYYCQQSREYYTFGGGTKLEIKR; 3.04
7) HCV 208B-862 (antibody) chain 1: DVQLQESGPGLVKPSQSLSLTCTVTGYSITSDYAWNWIRQFPGNKLEWMGYISYSGTTVYSPSLKSRISITRDTSKNQFFLQLNSVTIEDSATYYCGGNYWGQGTLVTVSA chain 2: DVVLTQTPLSLPLSLGDQASISCRSSQTLLHSDGDTYLHWYLQKPGQSPKLLIYKLSNRFSGVPDRFSGSGSGTDFTLKISRVEAEDLGVYFCSQSTHVPYTFGGGTKLEIKR; 3.28
8) HCV 208B-822 (antibody, V domains shown) VH: QVQLKQSGPGLVQPSQSLSITCTVSGFSLITYGVHWVRQSPGKGLEWLGVIWGGGSTGYNAAFVSRLNITKDNSKSQVFFKMNSLQPDDTAIYYCARNGGATVFDYWGQGTTLTVSS VL: DIVMTQSPATLSVTPGDRVSLSCRASQTISDYLHWYQQKSHESPRLLIKYASQSISGIPSRFSGSGSGSHFTLSINSVEPEDVGVYYCQNGHSFPWTFGGGTKLEIKR; 1.35
